- Test system: Streptococcus pyogenes
- experiment notes: MIC by agar dilution, SPYO 152
- Type: cell-based
- setup conditions: strain SPYO 152
recorded endpoint: Antibacterial Activity Minimum Inhibitory Concentration SPYO 152 (µg/mL)
Give the value, in units of µg/mL, as a plain number.

The recorded Antibacterial Activity Minimum Inhibitory Concentration SPYO 152 for entry CC(=O)NC[C@H]1CN(c2ccc(C3CCS(=N)(=O)CC3)c(F)c2)C(=O)O1 (single isomer, unassigned) [Example 8] equals 1

According to the records, this compound CC(=O)NC[C@H]1CN(c2ccc(N3CCS(=N)(=O)CC3)c(F)c2)C(=O)O1 [PREP 1] displays Antibacterial Activity Minimum Inhibitory Concentration SPYO 152 of 2

Sure, the documented Antibacterial Activity Minimum Inhibitory Concentration SPYO 152 for C[N-][S+2]1([O-])CCC(c2ccc(N3CC(CNC(=S)C4CC4)OC3=O)cc2F)CC1 (centres unmarked) [Example 31] is 1

Antibacterial Activity Minimum Inhibitory Concentration SPYO 152 reported for this compound COC(=O)N=S1(=O)CCN(c2ccc(N3C[C@H](CNC(=S)C4CC4)OC3=O)cc2F)CC1 [Example 28] : 0.5

Measured Antibacterial Activity Minimum Inhibitory Concentration SPYO 152 of CC(=S)NC[C@H]1CN(c2ccc(C3CCS(=N)(=O)CC3)c(F)c2)C(=O)O1 (single isomer, unassigned) [Example 9] : 0.25

----------
- System: Staphylococcus aureus
- experiment notes: MIC by agar dilution, SAUR 9213
- Assay type: cell-based
- setup conditions: Staphylococcus aureus, strain SAUR 9213, read-out: Antibacterial Activity Minimum Inhibitory Concentration SAUR 9213
- Description: The in vitro activity of compounds of this invention can be assessed by standard testing procedures such as the determination of minimum inhibitory concentration (MIC) by agar dilution as described in “Approved Standard.
Give MIC for every item shown.
A number alone suffices; assume µg/mL.

Reported MIC ( CCC(=S)NC[C@H]1CN(c2ccc([C@H]3CC[S@+2]([O-])([N-]CC(N)=O)CC3)c(F)c2)C(=O)O1 [Example 23] ) = 2

Briefly, MIC measured for CCC(=S)NC[C@H]1CN(c2ccc(N3CCS(=O)(=NC)CC3)c(F)c2)C(=O)O1 [Example 25] : 2

// recorded MIC for CCC(=S)NCC1CN(c2ccc(C3CC[S+2]([O-])([N-]Cc4ccccc4)CC3)c(F)c2)C(=O)O1 (stereo not drawn) [Example 16] : 2
